# credit: paper PMC5540273

# %Inh per entry
- Test system: PIM3
- condition info: concentration: 1 μM, replicates: in singlicate; n = 1;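 note: KINOMEscan kinase panel screen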
Write it as a number; the unit % goes unstated.

Study these solved cases before continuing.
molecule	%Inh, %
COc1cc2nccc(Nc3cccc(Oc4ccccc4)c3)c2cc1OC.Cl [GW284543]	0
Cc1nnc(-c2ccc3ncn(-c4ccc(S(C)=O)cc4)c3c2)o1 (centres unmarked)	11
CCC(=O)c1c(-c2ccccc2)c2cc(Cl)ccc2c(=O)n1Cc1cc(C(=O)NC2CC2)n(C)n1	11
O=C1NC(=O)C(c2ccccc2)=C1Nc1cccc(O)c1 [SB-390534]	0
COc1cccc(C2=C(Nc3cccc(C(=O)O)c3)C(=O)NC2=O)c1 [SB-390770]	0

Input: Param item = Nc1ncnc2c1ncn2-c1ccc(Cl)cc1 [AH2635] ; retrieve measured %Inh.
Output: 0

Input: Please answer likewise for CN(C)c1cc(-c2ccc3c(N)n[nH]c3c2)nc(N)n1 [GSK2219329]
Output: 0

---

- Test system: DDR2
- condition info: concentration: 1 μM, replicates: in singlicate; n = 1
value kind: %Inh
I'd appreciate it if you included the unit after the number.

compound	%Inh
Cc1ccc(Oc2ccc(Nc3ncnc4cc[nH]c34)cc2C)cn1	0%
CCC(=O)c1c(-c2ccccc2)c2cc(Cl)ccc2c(=O)n1Cc1cc(S(C)(=O)=O)n(CC(N)=O)n1	0%
COc1cc2ncn(-c3cc(OCc4ccncc4)c(C(N)=O)s3)c2cc1OC [GSK336313]	0%

Input: Find the recorded %Inh belonging to Cc1ccc(-c2ccc3c(ccc4sc5c(c43)NC[C@@H](C)N=C5N(C)C)n2)cn1 and report it.
Output: 0%

---

- Test system: YES
- Construct: gene YES1
- condition info: concentration: 1 μM, replicates: in singlicate; n = 1
Kindly apply the following: 1 (yes) if %Inh is less than 7%, 0 (no) in every other case.

Here's what some known entries look like.
compound	category
Nc1nccc2scc(-c3ccc4c(c3)CCN4C(=O)Cc3ccccc3)c12	1 (yes)
CCS(=O)(=O)c1ccc(OC)c(Nc2ncc(-c3ccc(F)cc3)o2)c1.Cl	1 (yes)
COc1cc2ncn(-c3cc(OCCCc4ccccc4)c(C(N)=O)s3)c2cc1OC	1 (yes)
Nc1ncnc2c1ncn2-c1ccc(Cl)cc1	1 (yes)
O=C(Nc1n[nH]c2nc(-c3ccccc3)c(Br)cc12)C1CC1	0 (no)
CCC(=O)c1c(-c2ccccc2)c2cc(Cl)ccc2c(=O)n1Cc1cc(S(C)(=O)=O)n(CC(N)=O)n1	1 (yes)
Cc1cc(Nc2nc(-c3cccc(C)n3)nc3ccccc23)ccn1	1 (yes)
Nc1n[nH]c2nnc(-c3ccccc3)c(-c3ccccc3)c12	0 (no)
Cc1nnc(-c2ccc(C)c(-c3ccc(C(=O)O)cc3)c2)o1	1 (yes)
COc1cccc(C2=C(N(C)c3ccccc3)C(=O)NC2=O)c1	0 (no)

Input: State whether 7% exceeds %Inh recorded for CCc1ccc(-c2ccc3c(c2)-c2nn(C)cc2S(=O)(=O)N3C)cc1 .
Output: 1 (yes)

Input: Also COc1cc(Nc2nccc(N3CCC(NC(=O)C4COc5ccccc5O4)C3)n2)cc(OC)c1OC (stereo not shown) ?
Output: 0 (no)

Input: Also check Cc1nc(N(C)[C@H]2CN(C(=O)CC#N)CC[C@H]2C)c2cc[nH]c2n1
Output: 0 (no)

Input: Another compound: COc1ccc(Nc2nccc(N3CCC(NS(=O)(=O)c4ccc(NC(C)=O)cc4)C3)n2)cc1 (stereo not shown)
Output: 0 (no)

Input: What do you get for O=C(Nc1ccc2c(c1)OCO2)NC1CCN(c2ccnc(NCc3ccc(F)cc3)n2)CC1 ?
Output: 0 (no)

Input: // repeat for COc1cc2nccc(Nc3cccc(Oc4ccccc4)c3)c2cc1OC.Cl and report
Output: 0 (no)

Input: Can you check Fc1cccc(CSc2nnc(-c3ccc4c(c3)CCO4)o2)c1 next?
Output: 0 (no)

Input: FC(F)(F)c1ccc(-c2ncn(CCCN3CCOCC3)c2-c2ccncc2)cc1 ?
Output: 1 (yes)
